# TARGET_OF_ASSAY: Kappa-type opioid receptor (Homo sapiens)
# Sequence (P41145 whole entry): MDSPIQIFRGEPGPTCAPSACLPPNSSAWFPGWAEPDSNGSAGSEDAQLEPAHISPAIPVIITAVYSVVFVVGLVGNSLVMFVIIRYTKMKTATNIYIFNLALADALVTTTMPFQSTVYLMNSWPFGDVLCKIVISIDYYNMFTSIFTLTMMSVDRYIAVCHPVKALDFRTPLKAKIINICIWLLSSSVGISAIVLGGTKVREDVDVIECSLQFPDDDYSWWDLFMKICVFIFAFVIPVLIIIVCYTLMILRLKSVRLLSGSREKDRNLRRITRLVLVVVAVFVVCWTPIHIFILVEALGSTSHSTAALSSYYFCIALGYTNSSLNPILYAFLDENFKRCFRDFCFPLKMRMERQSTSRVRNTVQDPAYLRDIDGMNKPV
# Assay type: functional
pEC50: −log10 of the molar value.
ASSAY_ENDPOINT: pEC50

MOLECULE | ASSAY_ENDPOINT | NUMERIC_VALUE
CCC(C)(C(=O)NC1CCCCC1)N(Cc1cccs1)C(=O)c1ccccn1 (stereo unspecified) | pEC50 | 7.22

---

Each item that follows carries a reported EC50.
# TARGET_OF_ASSAY: Luciferin 4-monooxygenase (Photinus pyralis, UniProt P08659)
# Sequence (P08659 whole entry): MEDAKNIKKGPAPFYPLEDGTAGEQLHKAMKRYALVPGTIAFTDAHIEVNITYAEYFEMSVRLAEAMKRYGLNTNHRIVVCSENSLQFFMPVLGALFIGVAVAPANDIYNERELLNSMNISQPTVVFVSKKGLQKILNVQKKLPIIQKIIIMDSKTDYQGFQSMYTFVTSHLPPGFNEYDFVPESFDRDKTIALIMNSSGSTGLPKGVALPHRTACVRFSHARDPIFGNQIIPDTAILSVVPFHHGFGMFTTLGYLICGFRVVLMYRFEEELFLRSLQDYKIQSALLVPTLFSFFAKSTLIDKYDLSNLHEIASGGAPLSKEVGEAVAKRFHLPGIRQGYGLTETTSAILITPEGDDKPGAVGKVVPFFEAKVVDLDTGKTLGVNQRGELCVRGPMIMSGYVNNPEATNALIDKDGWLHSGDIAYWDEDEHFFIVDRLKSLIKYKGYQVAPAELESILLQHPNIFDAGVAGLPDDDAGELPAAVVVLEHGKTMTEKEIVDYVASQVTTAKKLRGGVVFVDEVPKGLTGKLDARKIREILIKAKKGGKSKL
# ASSAY_NAME: firefly luciferase enzyme inhibitors, dose response, biochemical, luminescence (AID 1891)
The source made the active and inactive calls.
ASSAY_ENDPOINT: EC50

COMPOUND | ASSAY_ENDPOINT | RESULT
COc1ccc(C(=O)Nc2ccc(N3CCCC3)cc2)cc1OC | EC50 | 1.45 µM (active)
CCCSc1cc(NCCOC(C)=O)c([N+](=O)[O-])c2nonc12 | EC50 | > 112 µM (not active)
C(=N\Nc1nc2ccccc2[nH]1)/c1ccccn1 | EC50 | 1.16 µM (active)
CSc1cccc(NC(=O)c2cc(S(=O)(=O)N3CCCC3)cn2C)c1 | EC50 | > 112 µM (not active)
c1ccc(-c2nc3c4ccccc4ccn3c2CN2CCCCC2)cc1 | EC50 | 14.8 µM (active)
COc1cccc(C(=O)N/N=C/c2c[nH]nc2-c2ccc(OC)cc2OC)c1 | EC50 | > 112 µM (not active)
N/C(=N\N=C\c1cccc(O)c1)c1nonc1N | EC50 | 3.47 µM (active)
CCOC(=O)C1=C(C)N(c2ccc(C)cc2)C(=O)/C1=C\c1ccc(O)c(OC)c1 | EC50 | > 112 µM (not active)
Cc1ccc(N/N=C/c2ccc3c(c2)OCCO3)cc1Cl | EC50 | > 112 µM (not active)
O=C(NCC1CCCO1)c1ccc(NC(=O)c2cccc(Cl)c2)cc1 (configuration not stated) | EC50 | > 112 µM (not active)
CC(=O)NC(CCS(C)(=O)=O)C(=O)Nc1cc(C)on1 (configuration not stated) | EC50 | > 112 µM (not active)
Cc1ccc(NC(=O)c2cc(NC(=O)CCCC(=O)O)ccc2Cl)cc1Cl | EC50 | > 112 µM (not active)

---

# TARGET_OF_ASSAY: Zinc finger protein mex-5 (Caenorhabditis elegans, UniProt Q9XUB2)
# Sequence (Q9XUB2 whole entry): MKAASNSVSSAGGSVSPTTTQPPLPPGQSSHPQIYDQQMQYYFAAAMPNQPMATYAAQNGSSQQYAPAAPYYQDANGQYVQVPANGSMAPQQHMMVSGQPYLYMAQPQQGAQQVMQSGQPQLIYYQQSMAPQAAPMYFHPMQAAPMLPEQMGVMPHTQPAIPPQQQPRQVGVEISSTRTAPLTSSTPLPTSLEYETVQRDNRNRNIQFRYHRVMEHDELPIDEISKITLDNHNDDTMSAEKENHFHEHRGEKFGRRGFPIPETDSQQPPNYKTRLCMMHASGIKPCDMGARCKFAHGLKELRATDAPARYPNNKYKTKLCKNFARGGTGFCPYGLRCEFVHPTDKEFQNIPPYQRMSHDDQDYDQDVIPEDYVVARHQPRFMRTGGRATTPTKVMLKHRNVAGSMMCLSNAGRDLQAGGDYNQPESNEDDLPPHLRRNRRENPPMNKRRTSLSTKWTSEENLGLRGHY
# ASSAY_NAME: MEX-5/TCR-2 RNA interaction inhibitors, dose response, biochemical, C. elegans, fluorescence polarization (AID 1960)
The source made the active and inactive calls.
ASSAY_ENDPOINT: EC50

STRUCTURE | ASSAY_ENDPOINT | RESULT
COc1c(O)cccc1[C@H](O)C1CCN(CCc2ccc(F)cc2)CC1 | EC50 | 13.7 µM (active)
COc1cc(/C=N/Nc2nc(O)nnc2C)cc([N+](=O)[O-])c1O | EC50 | 10.8 µM (inconclusive)
CCCNc1c(F)c(F)c2c(C)c3ccccc3nc2c1F | EC50 | 1.97 µM (active)

---

# TARGET_OF_ASSAY: Calpain-2 catalytic subunit (Sus scrofa, UniProt P43367)
# Sequence (P43367 whole entry): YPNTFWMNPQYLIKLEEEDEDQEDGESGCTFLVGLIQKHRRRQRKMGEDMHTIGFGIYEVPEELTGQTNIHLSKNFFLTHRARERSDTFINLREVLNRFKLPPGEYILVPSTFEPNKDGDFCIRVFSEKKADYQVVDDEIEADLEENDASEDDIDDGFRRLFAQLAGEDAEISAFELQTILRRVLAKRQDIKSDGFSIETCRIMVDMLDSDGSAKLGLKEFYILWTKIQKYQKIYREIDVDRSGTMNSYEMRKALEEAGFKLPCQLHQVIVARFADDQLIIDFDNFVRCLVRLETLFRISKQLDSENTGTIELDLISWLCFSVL
# ASSAY_NAME: pig calpain II inhibitor potency, dose response, biochemical, fluorogenic peptide substrate (AID 1420)
# Type: functional
Entries annotated with measured IC50

COMPOUND | IC50
Cc1cc(NC(=O)CSc2nnc(-c3ccncc3)n2N)ccc1Br | > 50 µM (not active)
O=C(Nc1nc(-c2ccc(Cl)cc2)cs1)C1CCCO1 (stereo unspecified) | 19.1 µM (not active)
COc1ccc(NC(=O)c2ccc(=O)oc2)cc1 | 11.5 µM (not active)
COC(=O)c1ccc(N2C(=O)C3CC(C)=C(C)CC3C2=O)cc1 (stereo unspecified) | 10.9 µM (not active)
O=C(COC(=O)CCc1ccccc1)NC12CC3CC(CC(C3)C1)C2 | 19.6 µM (not active)
O=C(CCOc1ccccc1)Nc1ccc(S(=O)(=O)N2CCCC2)cc1 | 26.4 µM (not active)
